Catalogue of compounds with associated melting point
Respond numerically; units are °C and should not be typed.

SMILES_ENTRY | UNIT_TAG | melting point
CNC(=O)CN(c1ccc(Cl)cc1Cc1c(F)cccc1F)S(=O)(=O)c1ccc(OC)c(OC)c1 | °C | 92.9

Now let's try a different one.
May I ask what melting point has been recorded for CON(C)C(=O)c1ccc2nc(Cl)nc(-c3cccc(Cl)c3)c2c1 ? 110

---

OBSERVABLE: melting point

Previously resolved entries follow.
COMPOUND | OBSERVABLE | ENDPOINT_VALUE
CC1CC2(CC3CCC4C5CCC(=O)C5(C)CCC4C13C)OCCO2 (stereo not given) | melting point | 154 °C
O=c1c2cccc3c2c(cn1C1CN2CCC1CC2)CC3 (racemic) | melting point | 146 to 147 °C

May I ask what melting point has been recorded for Cc1ccc(-c2nc(O)cc(-c3ccccc3)n2)cc1 ? 282 to 283 °C

May I ask what melting point has been recorded for CC(=O)NC[C@H]1CN(c2ccc(N3CCC4(CC3)OCCS4)c(F)c2)C(=O)O1 ? 160 to 164 °C
